Biological target: T1, Arabidopsis thaliana Med25 ACtivator Interaction Domain (aMed25-ACID), Med25_(551-680) (Arabidopsis thaliana, UniProt Q7XYY2 551-680)
T1 construct: source: 15N-labelled in M9 medium for NMR
T1 sequence (looked up): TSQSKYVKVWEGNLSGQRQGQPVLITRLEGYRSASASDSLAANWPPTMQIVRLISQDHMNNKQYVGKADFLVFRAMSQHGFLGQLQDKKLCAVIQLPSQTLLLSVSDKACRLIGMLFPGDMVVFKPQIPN
Assay: SPR
Details: both partners purified
Quantity: Kd (nM)

{"columns": ["Binder", "Reading"],
 "data": [
  ["TAPPTDVSLGDELHLDGEDVAMAHADALDDFDLDMLGDGDS (domain or fragment, source: E. coli BL21 pLysS, purified (glutathione-sepharose 4B))", 2400],
  ["GST-VP16-TAD (Herpes simplex virus VP16 transcription activation domain, both subdomains, residues 427-485) (domain or fragment, source: E. coli BL21 pLysS, purified (glutathione-sepharose 4B)) DGEDVAMAHADALDDFDLDMLGDGDSPGPGFTPHDSAPYGALDMADFEFEQMFTDALGI", 1800]
]}
